# ASSAY_SUMMARY: in vivo
# RECORDED_CONDITIONS: mouse, ip
MEASURED_ENDPOINT: LD50 at 336 h (mg/kg)
Quick note: give the figure in mg/kg, leave out the unit.

Cc1cccc(C)c1N(CC(=O)NCCC(=O)O)C(=O)c1ccc(Cl)cc1; 450
Cc1cccc(C)c1N(CC(=O)NCC(=O)O)C(=O)c1ccc(Cl)cc1; 400
COc1ccc(N(CCCC(=O)O)C(=O)CCN(C(=O)c2ccc(Cl)cc2)c2c(C)cccc2C)cc1; 60

API: the following record is the query input.
Item under review: COc1ccc(N(CC(=O)NCCC(=O)O)C(=O)c2ccc(Cl)cc2)cc1 . Reported LD50 at 336 h? 1300

###

# Tested on: pancreatic secretion
# ASSAY_SUMMARY: Influence on the pancreatic secretion of the narcotized rat after intraduodenal application
# Format: in vivo, rat (male Sprague-Dawley)
# RECORDED_CONDITIONS: Rattus norvegicus, 0.5 h, read-out: Pancreatic Secretion ED50 (dose which brings about an increase in the pancreatic secretion by a maximum of 50%)
Labelling field: enter Fulfilled if recorded ED50 is less than 5 mg/kg. Enter Not fulfilled if it equals or exceeds that cut-off.

Recorded results for 2 compounds are shown here.
COc1ccc(N(CC(=O)N(C)CC(=O)O)C(=O)c2ccc(Cl)cc2)cc1; Not fulfilled
COc1ccc(N(CC(=O)NCCC(=O)O)C(=O)c2ccc(Cl)cc2)cc1; Not fulfilled

Identify whether the compound COc1ccc(N(CCCC(=O)O)C(=O)CN(C(=O)c2ccc(Cl)cc2)c2ccc(OC)cc2)cc1 records ED50 below 5 mg/kg. Fulfilled

Identify whether the compound COc1ccc(N(CCCC(=O)O)C(=O)CCCN(C(=O)c2ccc(Cl)cc2)c2c(C)cccc2C)cc1 records ED50 below 5 mg/kg. Fulfilled

Identify whether the compound COc1ccc(N(CC(=O)N(CCCC(=O)O)c2ccc(OC)cc2)C(C)=O)cc1 records ED50 below 5 mg/kg. Fulfilled

Identify whether the compound COc1ccc(N(CCCC(=O)O)C(=O)CCN(C(C)=O)c2c(C)cccc2C)cc1 records ED50 below 5 mg/kg. Not fulfilled

###

# System: pancreatic secretion
# ASSAY_SUMMARY: Influence on the pancreatic secretion of the narcotized rat after intraduodenal application
# Format: in vivo, rat (male Sprague-Dawley)
# RECORDED_CONDITIONS: Rattus norvegicus, 0.5 h, read-out: Pancreatic Secretion ED50 (dose which brings about an increase in the pancreatic secretion by a maximum of 50%)
MEASURED_ENDPOINT: ED50 (mg/kg)
Quick note: give the figure in mg/kg, leave out the unit.

COc1ccc(C(=O)N[C@@H](Cc2ccccc2)C(=O)N(CCCC(=O)O)c2ccc(OC)cc2)cc1; 6

Item under review: Cc1cccc(C)c1N(CCCC(=O)O)C(=O)CCCN(C(=O)c1ccc(Cl)cc1)c1c(C)cccc1C . Reported ED50? 1

Item under review: Cc1cccc(C)c1N(CCCC(=O)N(C)CC(=O)O)C(=O)c1ccc(Cl)cc1 . Reported ED50? 10

###

# ASSAY_SUMMARY: in vivo
# RECORDED_CONDITIONS: mouse, ip
MEASURED_ENDPOINT: LD50 at 336 h (mg/kg)
Quick note: give the figure in mg/kg, leave out the unit.

Here's what some known entries look like.
COc1cc(C(=O)N(CCCC(=O)NCCCC(=O)O)c2c(C)cccc2C)cc(OC)c1OC; 800
COc1ccc(N(CCCC(=O)O)C(=O)CCCN(C(=O)c2ccc(Cl)cc2)c2c(C)cccc2C)cc1; 150
COc1ccc(N(CCCC(=O)O)C(=O)C(C)N(C(=O)c2ccco2)c2ccc(OC)cc2)cc1 (stereo not drawn); 750

API: the following record is the query input.
Item under review: COc1ccc(N(CCCC(=O)O)C(=O)C(C)N(C(C)=O)c2ccc(OC)cc2)cc1 (stereo not drawn) . Reported LD50 at 336 h? 600
